- METHOD DESCRIPTION: chemical genetic growth profiling, strain panel (AID 1159580);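 further: tested at 20 µM; growth read once vehicle control cultures reached saturation at 30 °C; 1 = growth at the plate median or of vehicle wells; lower values mean less growth of the strain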
- CONDITION PARAMETERS: S. cerevisiae deletion strains, growth OD, locus YJL134W, strain LCB3, active compounds read low
About 2,000 (36%) of roughly 5,500 compounds were called active. Another 18% or so got no clear call; they are omitted. The list shows a part of the results.
ENDPOINT LABEL: normalized growth
Enter the number alone.

# COMPOUND, OBS VALUE
data = [
    ("O=C1CN(/N=C\\c2ccc([N+](=O)[O-])o2)C(=O)N1", 1),
    ("CC[C@@H](C(=O)[C@@H](C)[C@@H](O)[C@H](C)[C@@H]1O[C@@H]([C@@H](CC)C(=O)O)CC[C@@H]1C)[C@H]1OC2(C=C[C@@H](O)[C@]3(CC[C@@](C)([C@H]4CC[C@](O)(CC)[C@H](C)O4)O3)O2)[C@H](C)C[C@@H]1C (stereo partly specified)", 0.949),
]

Data request: Data request, read-out normalized growth, for CCOc1ccc2c(c1)C(C)=CC(C)(C)N2
Data returned: 0.994

Data request: Try this compound next: C#C[C@]1(O)CCC2C3CCc4cc(O)ccc4C3CC[C@@]21C (stereo partly specified)
Data returned: 1.03

Data request: Try this compound next: NC(=O)c1cc[n+](CC2=C(C(=O)O)N3C(=O)C(NC(=O)C(c4ccccc4)S(=O)(=O)[O-])C3SC2)cc1 (stereo unspecified)
Data returned: 0.985

Data request: Try this compound next: COP(=S)(OC)Oc1ccc(SC)c(C)c1
Data returned: 1.02

Data request: Try this compound next: O=c1ccn([C@@H]2O[C@H](COP(=O)(O)OP(=O)(O)OP(=O)(O)O)[C@@H](O)[C@H]2O)c(=O)[nH]1
Data returned: 1.01

Data request: Try this compound next: Nc1c(Br)cc(Br)cc1CNC1CCC(O)CC1 (stereo unspecified)
Data returned: 1.01

Data request: Try this compound next: Cc1ccc(C(C)C)cc2c(C)ccc1-2
Data returned: 1

Data request: Try this compound next: O=c1cccc2n1C[C@H]1CNCC2C1
Data returned: 0.999

Data request: Try this compound next: CC1(C)C2CC(=O)O[C@@]3(C)C4=CC(=O)O[C@@H](c5ccoc5)[C@]4(C)CCC3[C@@]2(C)C=C[C@H]1O (stereo partly specified)
Data returned: 1.01

Data request: Try this compound next: CC1CC2C(C(O)CC3(C)C2CCC3(O)C(=O)COC(=O)CCC(=O)O)C2(C)C=CC(=O)C=C12 (stereo unspecified)
Data returned: 0.999

Data request: Try this compound next: CN(Cc1cc(Br)cc(Br)c1N)C1CCCCC1
Data returned: 1.02

Data request: Try this compound next: COc1cc(/C=C/C(=O)O)cc(OC)c1OC
Data returned: 1
